# system-under-test: UniProtKB Q06124
# Sequence (Q06124 whole entry): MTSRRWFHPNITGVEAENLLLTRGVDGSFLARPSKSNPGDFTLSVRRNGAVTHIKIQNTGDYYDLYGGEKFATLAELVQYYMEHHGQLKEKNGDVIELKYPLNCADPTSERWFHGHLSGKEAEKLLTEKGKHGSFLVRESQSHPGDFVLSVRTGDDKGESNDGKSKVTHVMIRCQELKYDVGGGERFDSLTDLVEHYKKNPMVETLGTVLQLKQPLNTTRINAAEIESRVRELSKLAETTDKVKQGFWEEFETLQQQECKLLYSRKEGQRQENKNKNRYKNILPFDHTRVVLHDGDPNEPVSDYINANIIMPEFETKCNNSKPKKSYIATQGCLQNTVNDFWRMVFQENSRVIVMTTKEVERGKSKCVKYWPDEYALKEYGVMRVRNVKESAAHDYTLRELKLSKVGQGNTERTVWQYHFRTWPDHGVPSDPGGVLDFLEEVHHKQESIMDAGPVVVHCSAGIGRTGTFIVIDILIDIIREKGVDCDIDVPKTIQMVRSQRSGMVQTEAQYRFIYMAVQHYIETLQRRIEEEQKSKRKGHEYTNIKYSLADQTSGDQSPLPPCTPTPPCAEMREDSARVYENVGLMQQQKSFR
# measurement-notes: SHP2 degradation by Western blot in KYSE520 cells
# conditions: 0.1 µM
parameter-measured: % of SHP2 protein degradation in KYSE520 cell line

Cc1ncsc1-c1ccc([C@@H](C)NC(=O)[C@H]2C[C@H](O)CN2C(=O)[C@H](NC(=O)CCCCCCCCCCCNC(=O)CC(=O)Nc2cccc(Sc3ncc(N4CCC(C)(CN)CC4)nc3N)c2Cl)C(C)(C)C)cc1 : >95%

Turning now to a further molecule:
Form field % of SHP2 protein degradation in KYSE520 cell line for item Cc1ncsc1-c1ccc([C@@H](C)NC(=O)[C@H]2C[C@H](O)CN2C(=O)[C@H](NC(=O)CCCCCCCCCCNC(=O)CCC(=O)Nc2cccc(Sc3ncc(N4CCC(C)(N)CC4)nc3N)c2Cl)C(C)(C)C)cc1 on UniProtKB Q06124: >95%
